Assay: Phase 1 Study ABI-1648-006, single oral dose pharmacokinetics
Settings: male, human, plasma, po, 25 mg
ATTRIBUTE_MEASURED: Tmax (h)
Numbers only, in h.

# molecule CO[C@H]1/C=C/O[C@@]2(C)Oc3c(C)c(O)c4c(=O)c(c5oc6cc(N7CCN(CC(C)C)CC7)cc(O)c6nc-5c4c3C2=O)NC(=O)/C(C)=C\C=C\[C@H](C)[C@H](O)[C@@H](C)[C@@H](O)[C@@H](C)[C@H](OC(C)=O)[C@@H]1C [rifalazil] ; its Tmax = 5

---

Assay: Phase 1 Study ABI-1648-006, single oral dose pharmacokinetics
Conditions: male, human, plasma, po, 2.5 mg, Distribution t1/2 Mean, males, single oral dose 2.5 mg
ATTRIBUTE_MEASURED: half-life (h)
Numbers only, in h.

# compound CO[C@H]1/C=C/O[C@@]2(C)Oc3c(C)c(O)c4c(=O)c(c5oc6cc(N7CCN(CC(C)C)CC7)cc(O)c6nc-5c4c3C2=O)NC(=O)/C(C)=C\C=C\[C@H](C)[C@H](O)[C@@H](C)[C@@H](O)[C@@H](C)[C@H](OC(C)=O)[C@@H]1C [rifalazil] ; its half-life = 5.3

---

Experiment: Phase 1 Study ABI-1648-006, single oral dose pharmacokinetics
Conditions: female, human, plasma, po, 25 mg, Distribution t1/2 Mean, females, single oral dose 25 mg
ATTRIBUTE_MEASURED: half-life (h)
Answers are plain numbers, in h.

# compound CO[C@H]1/C=C/O[C@@]2(C)Oc3c(C)c(O)c4c(=O)c(c5oc6cc(N7CCN(CC(C)C)CC7)cc(O)c6nc-5c4c3C2=O)NC(=O)/C(C)=C\C=C\[C@H](C)[C@H](O)[C@@H](C)[C@@H](O)[C@@H](C)[C@H](OC(C)=O)[C@@H]1C [rifalazil] ; its half-life = 7.8

---

Experiment: Phase 1 Study ABI-1648-006, single oral dose pharmacokinetics
Settings: male, human, plasma, po, 2.5 mg, Cmax Mean, males, single oral dose 2.5 mg
ATTRIBUTE_MEASURED: Cmax (ng/mL)
Give bare numbers, in ng/mL.

# compound CO[C@H]1/C=C/O[C@@]2(C)Oc3c(C)c(O)c4c(=O)c(c5oc6cc(N7CCN(CC(C)C)CC7)cc(O)c6nc-5c4c3C2=O)NC(=O)/C(C)=C\C=C\[C@H](C)[C@H](O)[C@@H](C)[C@@H](O)[C@@H](C)[C@H](OC(C)=O)[C@@H]1C [rifalazil] ; its Cmax = 8.4

---

Assay: Phase 1 Study ABI-1648-006, single oral dose pharmacokinetics
Settings: female, human, plasma, po, 5 mg, Cmax GMean (geometric mean), females, single oral dose 5 mg
ATTRIBUTE_MEASURED: Cmax (ng/mL)
Give bare numbers, in ng/mL.

# compound `CO[C@H]1/C=C/O[C@@]2(C)Oc3c(C)c(O)c4c(=O)c(c5oc6cc(N7CCN(CC(C)C)CC7)cc(O)c6nc-5c4c3C2=O)NC(=O)/C(C)=C\C=C\[C@H](C)[C@H](O)[C@@H](C)[C@@H](O)[C@@H](C)[C@H](OC(C)=O)[C@@H]1C` ; its Cmax = 13.5

---

Assay: Phase 1 Study ABI-1648-006, multiple oral dose pharmacokinetics
Details: female, human, plasma, oral, 12.5 mg
ATTRIBUTE_MEASURED: half-life (h)
Answers are plain numbers, in h.

# compound `CO[C@H]1/C=C/O[C@@]2(C)Oc3c(C)c(O)c4c(=O)c(c5oc6cc(N7CCN(CC(C)C)CC7)cc(O)c6nc-5c4c3C2=O)NC(=O)/C(C)=C\C=C\[C@H](C)[C@H](O)[C@@H](C)[C@@H](O)[C@@H](C)[C@H](OC(C)=O)[C@@H]1C` ; its half-life = 86.5
